Biological target: SOS1/KRAS-G12D (Homo sapiens (Human))
Sequence (Q07889 564-1049 limits assumed): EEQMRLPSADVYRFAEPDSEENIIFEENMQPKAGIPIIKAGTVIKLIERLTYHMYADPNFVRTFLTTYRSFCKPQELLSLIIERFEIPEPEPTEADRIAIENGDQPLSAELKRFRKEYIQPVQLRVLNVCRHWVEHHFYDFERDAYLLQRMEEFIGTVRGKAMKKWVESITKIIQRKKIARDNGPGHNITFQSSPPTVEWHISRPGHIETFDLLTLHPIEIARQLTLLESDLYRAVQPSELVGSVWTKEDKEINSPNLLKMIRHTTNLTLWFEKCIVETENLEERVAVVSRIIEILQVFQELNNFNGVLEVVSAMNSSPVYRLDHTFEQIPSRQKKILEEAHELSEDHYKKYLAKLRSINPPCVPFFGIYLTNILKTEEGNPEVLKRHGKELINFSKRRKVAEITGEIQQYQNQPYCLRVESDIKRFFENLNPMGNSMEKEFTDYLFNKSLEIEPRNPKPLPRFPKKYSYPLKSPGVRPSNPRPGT
Test: SOS1/KRAS-G12D binding inhibition assay (AlphaScreen)
Conditions: GST-SOS1 and 6*His KRAS-G12D, read-out: KrasG12D/SOS1 binding IC50
Quantity name: IC50

Problem: Entry CC(=O)N1CC[C@](F)(c2ccc3nccc(N[C@H](C)c4cccc(C(F)F)c4F)c3c2)C1 [Compound 85] has what IC50?
Result: ≤ 10 nM

Problem: Endpoint output: IC50 of Cc1c([C@@H](C)Nc2ccnc3ccc(N4CCC5(CCN(C)C5=O)CC4)cc23)cccc1C(F)(F)F [Compound 23] . Value?
Result: 10 to 100 nM

Problem: Form field: reported IC50 of CC(=O)N1CCC(c2ccc3nccc(N[C@H](C)c4cccc(C(F)F)c4F)c3c2)CC1 [Compound 13]
Result: ≤ 10 nM

Problem: Entry under review: C[C@@H](Nc1ccnc2ccc(N3CC[C@@H](O)C3)cc12)c1cccc(C(F)F)c1F [Compound 42] . Reported IC50?
Result: ≤ 10 nM

Problem: Please give the measured IC50 for this molecule: Cc1c([C@@H](C)Nc2ccnc3ccc(N4CCN(C(=O)C(C)C)CC4)cc23)cccc1C(F)(F)F [Compound 46]
Result: 10 to 100 nM

Problem: Need IC50, item CO[C@]1(c2ccc3nccc(N[C@H](C)c4cccc(C(F)F)c4F)c3c2)CCN(C(=O)N(C)C)C1 [Compound 98]
Result: ≤ 10 nM

Problem: // returns reported IC50 for input CC(=O)N1CCN(c2ccc3nccc(N[C@H](C)c4cccc(C(F)(F)F)c4C)c3c2)C[C@@H]1C [Compound 33]
Result: > 100 nM
